target: Na^+ /H^+ exchanger (Oryctolagus cuniculus, UniProt P23791); construct: increase the exchanger activity in the rabbit erythrocytes; endogenous in cells; experiment: Sodium-Proton exchange inhibition in rabbit erythrocytes; details: concentration necessary to reduce the erythrocyte sodium content to 50%; erythrocytes of rabbits fed 2% cholesterol diet six weeks; 37° C., 1 hour, hyperosmolar sucrose buffer with ouabain
Sequence (P23791 whole entry): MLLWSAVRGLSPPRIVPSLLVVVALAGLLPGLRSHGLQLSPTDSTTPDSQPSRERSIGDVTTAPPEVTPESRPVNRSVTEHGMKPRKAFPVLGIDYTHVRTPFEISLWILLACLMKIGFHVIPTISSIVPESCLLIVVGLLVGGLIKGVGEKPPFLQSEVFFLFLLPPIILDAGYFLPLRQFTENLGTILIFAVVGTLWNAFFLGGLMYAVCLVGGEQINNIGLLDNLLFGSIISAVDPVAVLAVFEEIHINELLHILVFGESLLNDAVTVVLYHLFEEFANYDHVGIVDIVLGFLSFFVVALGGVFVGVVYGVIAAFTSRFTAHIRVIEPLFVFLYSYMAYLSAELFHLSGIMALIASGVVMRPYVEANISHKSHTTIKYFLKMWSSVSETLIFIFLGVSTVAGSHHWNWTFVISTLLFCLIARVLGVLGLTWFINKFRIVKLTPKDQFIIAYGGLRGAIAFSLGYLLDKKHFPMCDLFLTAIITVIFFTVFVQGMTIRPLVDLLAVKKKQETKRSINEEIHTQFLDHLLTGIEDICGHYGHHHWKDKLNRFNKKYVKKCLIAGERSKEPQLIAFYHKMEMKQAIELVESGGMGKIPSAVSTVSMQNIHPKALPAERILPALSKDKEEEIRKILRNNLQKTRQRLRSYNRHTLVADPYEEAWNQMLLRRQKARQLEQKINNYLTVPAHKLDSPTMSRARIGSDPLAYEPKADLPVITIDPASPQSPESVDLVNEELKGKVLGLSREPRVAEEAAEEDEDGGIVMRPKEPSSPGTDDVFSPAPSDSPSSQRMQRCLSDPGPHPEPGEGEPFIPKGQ
readout: IC50 (nM)

[
  {
    "compound": "COc1ccc2c(c1)C(=CC(=O)N=C(N)N)CC2",
    "IC50, nM": 660
  }
]

a. Cc1cccc2c1CCC2=CC(=O)N=C(N)N
b. Cc1ccc2c(c1)CCC2=CC(=O)N=C(N)N
# input // pick larger IC50 from pair: a vs b Use the label to indicate which entry you chose.
# output a
(a: 700 nM, b: 450 nM)
